system: BT-549 breast
Outcomes: active, inactive

Entry smiles: CCN(CC)C(=S)SSC1CCCCC1
Assayed system: BT-549 breast
Discrete label: inactive
--
Entry smiles: O=C1C=C(c2cc(Br)c(O)c(Br)c2)/C(=C/c2cc(Br)c(O)c(Br)c2)O1
Assayed system: BT-549 breast
Discrete label: inactive
--
Entry smiles: COc1ccc(-c2cn3ccnc3c(-c3ccc4ncn(C5CCCCC5)c4c3)n2)cc1
Assayed system: BT-549 breast
Discrete label: active
--
Entry smiles: CCc1ccc(C2=C(O)C(=O)C(c3ccc(CC)cc3)=C(O)C2=O)cc1
Assayed system: BT-549 breast
Discrete label: inactive
--
Entry smiles: Cc1ccc(S(=O)(=O)NCCN2c3nc4ccccc4cc3Sc3cc4ccccc4nc32)cc1
Assayed system: BT-549 breast
Discrete label: inactive
--
Entry smiles: O=[N+]([O-])/C=C\c1ccc2c(c1)OCO2
Assayed system: BT-549 breast
Discrete label: inactive
--
Entry smiles: CN(C)CCNc1cccc2sc3ccc(O)cc3c(=O)c12
Assayed system: BT-549 breast
Discrete label: inactive
--
Entry smiles: CC1(C)C(=O)/C(=C\c2ccco2)C[C@]2(C)[C@H]3CC=C4[C@@H]5C[C@](C)(C(=O)O)CC[C@]5(C)CC[C@@]4(C)[C@]3(C)CC[C@@H]12
Assayed system: BT-549 breast
Discrete label: inactive
--
Entry smiles: COc1cccc2c(=O)c3c(sc12)c(NCCCN)nc1ccccc13
Assayed system: BT-549 breast
Discrete label: inactive
--
Entry smiles: O=Nc1c2cccnc2n2nnc3ccc(Cl)cc3c12
Assayed system: BT-549 breast
Discrete label: inactive

====

The following molecules are shown together with reported TGI values.
tested on: NCI-H522 lung; experiment: NCI tumour cell line growth inhibition, 48 h
Property measured: TGI (µM)

Molecule: Cc1ccc2c3c1O[C@H]1c4nc5ccccc5cc4C[C@@]4(O)[C@@H](C2)N(CC2CC2)CC[C@]314
Property measured: TGI
Value unit: µM
Sign: =
Observed result: 27.5
--
Molecule: Cn1c(N/N=C/c2ccc(Cl)cc2)nc(-c2ccc(Cl)cc2)c(C#N)c1=O
Property measured: TGI
Value unit: µM
Sign: =
Observed result: 33.6
--
Molecule: O=C(CSc1nc2ccc(I)cc2c(=O)n1Cc1ccccc1)Nc1ccc(Br)cc1
Property measured: TGI
Value unit: µM
Sign: >
Observed result: 100
--
Molecule: CC1(C)CCOC(=O)C(Cl)CC1Cl (stereo unspecified)
Property measured: TGI
Value unit: µM
Sign: >
Observed result: 100
--
Molecule: O=C1NC(=O)C(c2ccccc2Cl)=C1Nc1cccc(O)c1
Property measured: TGI
Value unit: µM
Sign: >
Observed result: 25
--
Molecule: CN(C)Cc1cc(N=Nc2ccc(Cl)c(Cl)c2)ccc1O
Property measured: TGI
Value unit: µM
Sign: =
Observed result: 16.2
--
Molecule: CN(C)CCNc1cccc2sc3ccc(O)cc3c(=O)c12
Property measured: TGI
Value unit: µM
Sign: =
Observed result: 5.66
--
Molecule: COc1cc2c(cc1OCCCC(=O)Nc1cc(C(=O)Nc3cc(C(=O)NCCCN(C)C)n(C)n3)n(C)n1)N=CC1CCCN1C2=O (stereo unspecified)
Property measured: TGI
Value unit: µM
Sign: =
Observed result: 20.2
--
Molecule: COC(=O)c1c(O)ccc2c1c1c(n2C)C(=O)c2ccccc2C1=O
Property measured: TGI
Value unit: µM
Sign: >
Observed result: 100
--
Molecule: COC(=O)/C=C1/OC(c2ccccc2)=C(Cl)C1=O
Property measured: TGI
Value unit: µM
Sign: =
Observed result: 33
--
Molecule: CCOC(=O)c1c2ccc(/C=C/C(=O)OC)ccc-2c(C(=O)OCC)c1N
Property measured: TGI
Value unit: µM
Sign: >
Observed result: 100
